# measured_target: RUNX1 (UniProt Q01196)
# Sequence (Q01196 whole entry): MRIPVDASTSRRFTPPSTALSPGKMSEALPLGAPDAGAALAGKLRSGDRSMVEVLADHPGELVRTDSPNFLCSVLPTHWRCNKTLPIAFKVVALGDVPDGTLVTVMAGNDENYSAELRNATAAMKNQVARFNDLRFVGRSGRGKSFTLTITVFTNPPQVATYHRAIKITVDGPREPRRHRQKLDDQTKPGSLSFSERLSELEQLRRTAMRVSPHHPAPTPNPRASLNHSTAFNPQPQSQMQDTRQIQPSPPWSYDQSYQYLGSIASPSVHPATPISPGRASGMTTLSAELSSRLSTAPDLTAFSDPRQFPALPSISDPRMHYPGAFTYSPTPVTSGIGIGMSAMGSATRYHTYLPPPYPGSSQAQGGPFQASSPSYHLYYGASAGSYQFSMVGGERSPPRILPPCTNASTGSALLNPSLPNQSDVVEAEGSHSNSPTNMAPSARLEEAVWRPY
# assay_overview: RUNX1 binding intensity (PBM fluorescence), RUNX1 alone (arbitrary fluorescence units); higher = stronger binding
# experimental_conditions: RUNX1 concentration 2 nM; ETS1 concentration 0 nM
Parameter threshold = 800. Response is condition met when RUNX1 binding intensity meets or exceeds it, else condition not met.

Record excerpt, results attached:
                          item_sequence        group_label
0  GTGAATGAGGGGGAAGGAAGTGGTTTGGAAAAATAC      condition met
1  TTGGTGACCTCTTCCTGTCCGCTGTGGTGTTGTTAC      condition met
2  AAGTGAAGAGCTTCCGCCGGGAGACCGCGGCTGCAG  condition not met
3  GACACCCCACACCGGAAACCTCAGACAGTCCTCAGC      condition met
4  CGGGGTTTCCTGGTGGCTGCGAGCGGTGGGGACGGC  condition not met

Identify whether the reported RUNX1 binding intensity of the following sequence is 800 or greater: GCGACCCGACCCGGCGGAAACCACCTCGACAGCCTC condition met

Tell me whether RUNX1 binding intensity is at least 800 here: TCCCCGGCAGCTTCCTCGCCCCGACCGCAGTGTTCC condition met

# check: RUNX1 binding intensity of CCCCTTAGCACAGGATGTGGTCTTTGCATCTTCATT is greater than or equal to 800 condition met

Record GGGGACCGGAAAGGGAGGGGTGGGCCGCAGGCGCCG ; criterion: RUNX1 binding intensity no lower than 800. Met? condition not met

====

# measured_target: ETS1 (UniProt P14921)
# Sequence: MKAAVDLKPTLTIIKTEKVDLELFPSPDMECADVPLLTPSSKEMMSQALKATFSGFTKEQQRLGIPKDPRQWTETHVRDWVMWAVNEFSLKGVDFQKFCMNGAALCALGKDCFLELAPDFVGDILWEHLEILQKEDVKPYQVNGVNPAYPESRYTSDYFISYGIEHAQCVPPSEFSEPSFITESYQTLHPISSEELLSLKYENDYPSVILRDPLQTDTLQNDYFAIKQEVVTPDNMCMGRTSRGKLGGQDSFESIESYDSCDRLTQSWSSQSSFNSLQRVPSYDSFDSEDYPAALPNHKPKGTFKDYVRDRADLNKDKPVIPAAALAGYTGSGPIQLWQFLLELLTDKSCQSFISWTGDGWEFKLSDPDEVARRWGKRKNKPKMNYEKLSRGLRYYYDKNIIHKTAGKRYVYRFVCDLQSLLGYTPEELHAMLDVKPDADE
# assay_overview: ETS1 binding intensity (PBM fluorescence) in presence of RUNX1, normalised to ETS1-only experiment (arbitrary fluorescence units); higher = stronger binding
# experimental_conditions: ETS1 concentration 1 nM; RUNX1 concentration 25 nM
reported_metric: ETS1 binding intensity
Numbers only.

>>> print(df.to_string())
                          item_sequence  recorded_measurement
0  GGAGTGAGGAGGAAGCGGAGGCGAGACCGCGCTCAA                   399

Your task in this section: give ETS1 binding intensity for each listed record.
1. GTTGCCCCACTTCCTGCCAGTGGTTTTTGGTTGGCC
2. AATATCCTGTATGTCATGCTTAAAAAGCCACAAAAC

1: 4220; 2: 1070
